assay: chemical genetic growth profiling, strain panel (AID 1159580);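 further: tested at 20 µM; growth read once vehicle control cultures reached saturation at 30 °C; 1 = growth at the plate median or of vehicle wells; lower values mean less growth of the strain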; details: S. cerevisiae deletion strains, growth OD, locus YNL248C, strain rpa49, hits give low values
About 2,000 (36%) of roughly 5,500 compounds were called active. Inconclusive results (about 18%) are left out. The list shows a part of the results.
normalized growth by entry:

Past entries and their recorded results:
O=c1cc(-c2ccc(O)cc2)oc2ccc(O)cc12    0.988 (inactive)
S=c1ccss1    1.01 (inactive)
FC(F)(F)C(Cl)Br (stereo unspecified)    1.03 (inactive)
O=c1cc(-c2ccc(O)c(O)c2)oc2ccccc12    0.986 (inactive)

In: Suppose we examine the compound Cn1nnnc1SCC1=C(C(=O)O)N2C(=O)C(NC(=O)C(O)c3ccccc3)C2SC1 (stereo unspecified) ; what normalized growth value has been reported?
Out: 0.968 (inactive)

In: Data request, read-out normalized growth, for `CCN1CCN(c2cc3c(cc2F)c(=O)c(C(=O)O)cn3C2CC2)CC1`
Out: 1.01 (inactive)

###

assay: chemical genetic growth profiling, strain panel (AID 1159580);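 further: tested at 20 µM; growth read once vehicle control cultures reached saturation at 30 °C; 1 = growth at the plate median or of vehicle wells; lower values mean less growth of the strain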; settings: S. cerevisiae deletion strains, growth OD, locus YLR342W, strain FKS1 (second series)
The campaign covered roughly 5,500 compounds. About 2,000 (36%) were called active. Not shown: some 18% with an inconclusive outcome. No stated cut-off is given here; in the data, active means normalized growth mostly below about 0.91 (no sharp cut-off); inconclusive means no clear call, values can overlap the other calls; inactive means mostly above about 0.92. Some of the results follow.
The categories you may choose from are active, inactive

CC(=O)OC1CC2C(C)(C)CCCC2(C)C2CCC3(C)C(c4ccoc4)OC(=O)C4OC43C12C (stereo unspecified)    inactive

In: What outcome does the record of this test show for `NCCc1ccc(O)c(O)c1` ?
Out: inactive

In: Answer briefly: the call reported for `CCCCCCc1ccc(O)cc1O` in this assay.
Out: inactive

###

test: chemical genetic growth profiling, strain panel (AID 1159580);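 further: tested at 20 µM; growth read once vehicle control cultures reached saturation at 30 °C; 1 = growth at the plate median or of vehicle wells; lower values mean less growth of the strain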; details: S. cerevisiae deletion strains, growth OD, locus YPL240C, strain hsp82
The whole screen tested about 5,500 compounds, of which about 2,000 (36%) were called active. Inconclusive results (about 18%) are left out. No stated cut-off is given here; in the data, active means normalized growth mostly below about 0.91 (no sharp cut-off); inconclusive means no clear call, values can overlap the other calls; inactive means mostly above about 0.92. The list shows a part of the results.
# output must be one of 1 (yes) (active), 0 (no) (inactive)

Observe how each entry below is paired with its result.
CC(C)c1ccc2c(c1O)CC[C@H]1C3=C(CC[C@]21C)C(=O)OC3    0 (no)
C=C1C(N)CC2CC1C2(C)C (stereo not drawn)    0 (no)
Nc1ccc(C(=O)Oc2ccccc2)c(O)c1    0 (no)
CC(C)(Oc1ccc(Cl)cc1)C(=O)O    0 (no)
CC1(C)O[C@@H]2CC3C4C[C@H](F)C5=CC(=O)C=CC5(C)C4C(O)CC3(C)[C@]2(C(=O)CO)O1 (stereo partly drawn)    0 (no)
COc1c2c(cc3c1OCO3)CC[N+](C)=C2    0 (no)

In: Which outcome did this test record for the compound [N-]=[N+]=CC(=O)OCC(N)C(=O)O (stereo not drawn) ?
Out: 0 (no)

In: What did the test return for `CC(=O)Oc1c(-c2ccccc2)oc2c(CC=C(C)C)c3c(c(OC(C)=O)c2c1=O)C=CC(C)(C)O3` ?
Out: 1 (yes)

In: What did this assay record as the result for CN1CCOC(c2ccccc2)c2ccccc2C1 (stereo not drawn) ?
Out: 0 (no)

In: Which result was noted for this compound in the test: `COc1cccc(-c2cc(=O)c3ccc(OC)cc3o2)c1`
Out: 0 (no)

In: # fetch the recorded call for CC(=O)CC(c1ccccc1)c1c(O)c2ccccc2oc1=O (stereo not drawn) here
Out: 0 (no)

In: Each compound tested received a call. Report the one for FC(F)(F)C(Cl)Br (stereo not drawn) .
Out: 0 (no)

In: Check the results log: what was the call for `COc1ccc2cc3[n+](cc2c1OC)CCc1cc2c(cc1-3)OCO2` ?
Out: 0 (no)

In: I would be grateful if you could indicate the recorded call for `CC(=O)N(O)CCCCCNC(=O)CCC(=O)N(O)CCCCCNC(=O)CCC(=O)N(O)CCCCCN` .
Out: 0 (no)

In: Answer briefly: the call reported for CCCCOc1cc(CC2CNC(=O)N2)ccc1OC (stereo not drawn) in this assay.
Out: 0 (no)

In: Returns: the outcome recorded for CC(C)(C)C(=O)C(Oc1ccc(Cl)cc1)n1cncn1 (stereo not drawn) in this assay.
Out: 1 (yes)

In: Recorded test outcome, item `CC(C)=CCc1c2c(c(O)c3c(=O)c(O)c(-c4ccccc4)oc13)C=CC(C)(C)O2`
Out: 0 (no)

In: Hey, what did the test say about `O=c1cc(-c2cccc(O)c2)oc2ccc(O)cc12` ?
Out: 0 (no)

In: Recorded test call requested for `O=c1cc(-c2ccc(O)cc2)oc2ccc(O)cc12`
Out: 0 (no)

In: Check the results log: what was the call for `CCCN1C[C@H](CSC)C[C@@H]2c3cccc4[nH]cc(c34)C[C@H]21` ?
Out: 0 (no)

In: Fill in: this test's call for `O=C1CN2Cc3c(ccc(Cl)c3Cl)N=C2N1` is ___
Out: 0 (no)

In: Which outcome did this test record for the compound CC[N+]1(C)CCCC(OC(=O)C(O)(c2ccccc2)c2ccccc2)C1 (stereo not drawn) ?
Out: 0 (no)

In: Short answer needed: outcome of this test for CC(=O)O[C@H]1C[C@@]2(C)[C@H](c3ccoc3)OC(=O)[C@H]3O[C@]32[C@@]2(C)C1[C@]1(C)C(C[C@H]2OC(C)=O)C(C)(C)[C@H](OC(C)=O)C[C@@H]1OC(C)=O (stereo partly drawn) ?
Out: 0 (no)

These entries and their values trace back to PubChem BioAssay AID1159580.
